# reported pKi; entries follow
Target: BCL-XL (Homo sapiens (Human), UniProt Q07817)
Sequence (Q07817 1-212): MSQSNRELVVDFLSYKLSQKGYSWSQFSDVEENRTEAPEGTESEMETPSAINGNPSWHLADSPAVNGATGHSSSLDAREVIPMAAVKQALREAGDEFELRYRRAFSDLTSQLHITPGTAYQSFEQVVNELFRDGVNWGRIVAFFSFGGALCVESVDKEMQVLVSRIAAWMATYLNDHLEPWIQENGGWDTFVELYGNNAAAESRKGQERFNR
Assay: Fluorescence polarization competition assay (FPCA), displacement of FITC-Bak from BCL-XL
Format: binding
Conditions: Table 3; FITC-Bak peptide displacement; read-out: BCL-XL Affinity Ki
To interpret pKi, take it as minus log10 of a concentration measured in moles per litre.

compound	measValue
Cc1cc(OCCCn2nc(C(=O)NS(=O)(=O)c3ccc(NCc4cccnc4)c([N+](=O)[O-])c3)c3cc(Cl)ccc32)cc(C)c1Cl [BD-3-181]	6.24
Cc1cc(Oc2ccc(Cn3nc(C(=O)NS(=O)(=O)c4ccc([N+](=O)[O-])c(NCc5cccnc5)c4)c4cc(Cl)ccc43)cc2)cc(C)c1Cl [CG-1-018]	6.36

Here is the next item to consider.
Field pKi (entry Cc1cc(Oc2ccc(Cn3nc(C(=O)NS(=O)(=O)c4ccc([N+](=O)[O-])c(NCc5ccco5)c4)c4cc(Cl)ccc43)cc2)cc(C)c1Cl [CG-1-019] ) reads 6.49

* * *

Biological target: BCL-XL (Homo sapiens (Human))
Assay: Fluorescence polarization competition assay (FPCA), displacement of FITC-Bak from BCL-XL
Format: binding
Conditions: read-out: BCL-XL Affinity Ki
Method: These values were determined from a fluorescence polarization competition assay involving a fluorescently labeled peptide (BAK) bound to the desired Bcl-2 anti-apoptotic protein. […] The concentrated peptide stocks were prepared in DMSO and the concentration of the peptide was determined in water at pH 8.0 using the extinction coefficient for amide-linked FITC of λ494=68,000 cm^−1M^−1. […] The fluorescence polarization competition assays were setup using a Biomek FXP Automated Liquid Handling System. […]
measuredQuantity: Ki (nM)
Value expressed in nM; do not type the unit.

Examples from the recorded data:
moleculeSmiles	targetOfAssay	measValue
Cc1cc(Oc2ccc(Cn3nc(C(=O)NS(=O)(=O)c4ccc(NCc5cccnc5)c([N+](=O)[O-])c4)c4cc(Cl)ccc43)cc2)cc(C)c1Cl	BCL-XL (Homo sapiens (Human))	557
Cc1cc(Oc2ccc(Cn3nc(C(=O)O)c4cc(Cl)ccc43)cc2)cc(C)c1Cl	BCL-XL (Homo sapiens (Human))	2010

Here is the next item to consider.
Field Ki (entry Cc1cc(Oc2ccc(Cn3nc(C(=O)NS(=O)(=O)c4ccc(N5CCOCC5)c([N+](=O)[O-])c4)c4cc(Cl)ccc43)cc2)cc(C)c1Cl ) reads 840

* * *

Biological target: BCL-2 (Homo sapiens (Human), UniProt P10415)
Sequence (P10415 1-211): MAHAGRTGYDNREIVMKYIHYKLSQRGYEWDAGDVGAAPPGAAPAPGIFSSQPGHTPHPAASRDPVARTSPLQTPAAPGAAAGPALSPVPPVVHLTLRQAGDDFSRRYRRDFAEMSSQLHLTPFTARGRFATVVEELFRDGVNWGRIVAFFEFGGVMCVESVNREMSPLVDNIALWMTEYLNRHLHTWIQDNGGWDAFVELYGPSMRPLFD
Experiment: Fluorescence polarization competition assay (FPCA), displacement of FITC-Bak from BCL-2
Type: binding
Conditions: read-out: BCL-2 Affinity Ki
Hi! Just check whether Ki is below 6000 nM. Below gives y, equal or above gives n.

compound	assignedClass
CCN1CCN(c2cc(S(=O)(=O)NC(=O)c3nn(Cc4ccc(Oc5cc(C)c(Cl)c(C)c5)cc4)c4ccc(Cl)cc34)ccc2[N+](=O)[O-])CC1 [CG-1-023]	n
Cc1cc(OCCCn2nc(C(=O)O)c3cc(Cl)ccc32)cc(C)c1Cl [BD-3-173]	y
Cc1cc(Oc2ccc(Cn3nc(C(=O)NS(=O)(=O)c4ccc(N5CCOCC5)c([N+](=O)[O-])c4)c4cc(Cl)ccc43)cc2)cc(C)c1Cl [NB-1-086]	y

Q: Dear colleague, could you confirm whether Ki of Cc1cc(Oc2ccc(Cn3nc(C(=O)NS(=O)(=O)c4ccc(NCc5cccnc5)c([N+](=O)[O-])c4)c4cc(Cl)ccc43)cc2)cc(C)c1Cl [NB-1-087] falls below 6000 nM? Thanks.
Ans: y

Q: Dear colleague, could you confirm whether Ki of Cc1cc(OCCCn2nc(C(=O)NS(=O)(=O)c3ccc(NCC4CCN(C)CC4)c([N+](=O)[O-])c3)c3cc(Cl)ccc32)cc(C)c1Cl [BD-3-190] falls below 6000 nM? Thanks.
Ans: n

Q: Dear colleague, could you confirm whether Ki of Cc1cc(Oc2ccc(Cn3nc(C(=O)NS(=O)(=O)c4ccc(NCCN5CCOCC5)c([N+](=O)[O-])c4)c4cc(Cl)ccc43)cc2)cc(C)c1Cl [NB-1-088] falls below 6000 nM? Thanks.
Ans: y

Q: Dear colleague, could you confirm whether Ki of Cc1cc(Oc2ccc(Cn3nc(C(=O)O)c4cc(Cl)ccc43)cc2)cc(C)c1Cl [NB-1-070] falls below 6000 nM? Thanks.
Ans: y

* * *

Biological target: BCL-2 (Homo sapiens (Human))
Assay: Fluorescence polarization competition assay (FPCA), displacement of FITC-Bak from BCL-2
Format: binding
Details: Table 4; FPCA data for control compounds; read-out: BCL-2 Ki
measuredQuantity: Ki

// returns Ki for Cc1cc(OCCCc2c(C(=O)O)n(C)c3cc(Cl)ccc23)cc(C)c1Cl with BCL-2 (Homo sapiens (Human)); value = > 10 µM

* * *

# reported pKi; entries follow
Target: MCL-1 (Homo sapiens (Human), UniProt Q07820)
Sequence (Q07820 172-327): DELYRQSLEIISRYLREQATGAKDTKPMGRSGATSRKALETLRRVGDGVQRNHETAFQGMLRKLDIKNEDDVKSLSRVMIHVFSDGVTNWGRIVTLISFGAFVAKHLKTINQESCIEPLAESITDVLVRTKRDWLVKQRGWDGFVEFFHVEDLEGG
Assay: Fluorescence polarization competition assay (FPCA), displacement of FITC-Bak from MCL-1
Format: binding
Conditions: Table 3; FITC-Bak peptide displacement; read-out: MCL-1 Affinity Ki
To interpret pKi, take it as minus log10 of a concentration measured in moles per litre.

Field pKi (entry Cc1cc(Oc2ccc(Cn3nc(C(=O)NS(=O)(=O)c4ccc(NCc5ccco5)c([N+](=O)[O-])c4)c4cc(Cl)ccc43)cc2)cc(C)c1Cl ) reads 6.59

Field pKi (entry Cc1cc(Oc2ccc(Cn3nc(C(=O)NS(=O)(=O)c4ccc(NCCN5CCOCC5)c([N+](=O)[O-])c4)c4cc(Cl)ccc43)cc2)cc(C)c1Cl ) reads 6.12

Field pKi (entry Cc1cc(Oc2ccc(Cn3nc(C(=O)O)c4cc(Cl)ccc43)cc2)cc(C)c1Cl ) reads 6.04

* * *

Target: BCL-2 (Homo sapiens (Human), UniProt P10415)
Assay: Fluorescence polarization competition assay (FPCA), displacement of FITC-Bak from BCL-2
Type: binding
Settings: Table 3; FITC-Bak peptide displacement; read-out: BCL-2 Affinity Ki
measuredQuantity: Ki (µM)
Value expressed in µM; do not type the unit.

Examples from the recorded data:
molecule	targetOfAssay	Ki, µM
Cc1cc(OCCCn2nc(C(=O)NS(=O)(=O)c3ccc(NCC4CCCO4)c([N+](=O)[O-])c3)c3cc(Cl)ccc32)cc(C)c1Cl (stereo not drawn)	BCL-2 (Homo sapiens (Human), UniProt P10415)	1.17
Cc1cc(Oc2ccc(Cn3nc(C(=O)NS(=O)(=O)c4ccc([N+](=O)[O-])c(NCc5ccco5)c4)c4cc(Cl)ccc43)cc2)cc(C)c1Cl	BCL-2 (Homo sapiens (Human), UniProt P10415)	0.384

Here is the next item to consider.
Field Ki (entry Cc1cc(Oc2ccc(Cn3nc(C(=O)NS(=O)(=O)c4ccc(Cl)cc4)c4cc(Cl)ccc43)cc2)cc(C)c1Cl ) reads 1.09

* * *

Target: MCL-1 (Homo sapiens (Human), UniProt Q07820)
Assay: Fluorescence polarization competition assay (FPCA), displacement of FITC-Bak from MCL-1
Type: binding
Settings: Table 5; heterocyclic core SAR; read-out: MCL-1 Ki
measuredQuantity: Ki

Examples from the recorded data:
compound	Ki
Cc1cc(OCCCn2c(C(=O)O)nc3ccccc32)cc(C)c1Cl [compound 5]	> 10 µM
Cc1cc(OCCn2nc3ccc(Cl)cc3c2C(=O)O)cc(C)c1Cl [compound 11]	> 10 µM

Field Ki (entry Cc1cc(OCCCn2nc3ccc(Cl)cc3c2C(=O)O)cc(C)c1Cl [compound 10] ) reads > 10 µM

* * *

Biological target: UniProt Q07820
Assay: Fluorescence polarization competition assay (FPCA), displacement of FITC-Bak from MCL-1
Type: binding
Details: read-out: MCL-1 Ki
measuredQuantity: Ki

compound	measValue
Cc1cc(OCCCn2c(C(=O)O)nc3ccccc32)cc(C)c1Cl [compound 5]	> 10 µM
Cc1cc(OCCCn2nc3ccc(Cl)cc3c2C(=O)O)cc(C)c1Cl [compound 10]	> 10 µM

Field Ki (entry Cc1cc(OCCn2nc3ccc(Cl)cc3c2C(=O)O)cc(C)c1Cl [compound 11] ) reads > 10 µM

* * *

Molecular target: MCL-1 (Homo sapiens (Human))
Test: Fluorescence polarization competition assay (FPCA), displacement of FITC-Bak from MCL-1
Format: binding
Settings: Table 3; FITC-Bak peptide displacement; read-out: MCL-1 Affinity Ki
measuredQuantity: Ki (nM)
Value expressed in nM; do not type the unit.

Field Ki (entry Cc1cc(OCCCn2nc(C(=O)NS(=O)(=O)c3ccc(NCC4CCCO4)c([N+](=O)[O-])c3)c3cc(Cl)ccc32)cc(C)c1Cl (stereo not drawn) ) reads 690

Field Ki (entry Cc1cc(Oc2ccc(Cn3nc(C(=O)NS(=O)(=O)c4ccc([N+](=O)[O-])c(N5CCOCC5)c4)c4cc(Cl)ccc43)cc2)cc(C)c1Cl ) reads 370

Field Ki (entry Cc1cc(OCCCn2nc(C(=O)NS(=O)(=O)c3ccc(NCc4cccnc4)c([N+](=O)[O-])c3)c3cc(Cl)ccc32)cc(C)c1Cl ) reads 840
